Test system: Escherichia coli TOP10;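 note: peptides expressed intracellularly from a pBAD plasmid library in pooled LB shake-flask culture, induced with 0.3% L-arabinose, DNA abundance read by NGS, three biological replicates, DESeq2 with apeglm shrinkage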
Method Summary: shrunken log2 fold change of peptide-encoding DNA abundance (4.5 h post-induction vs induction); higher = less antimicrobial activity (less host growth inhibition)
Measurement Setup: time post-induction: 4.5 h; library: site-saturation at positions 5, 18, 19, 20
Value Kind: shrunken log2 fold change

[[record]]
macromolecule_sequence = "RRIRYRPPRLPRPRPRPLPTPRP"
quantitative_readout = -0.0873

[[record]]
macromolecule_sequence = "RRIRLRPPRLPRPRPRPIQFPRP"
quantitative_readout = -0.0198

[[record]]
macromolecule_sequence = "RRIRRRPPRLPRPRPRPDDVPRP"
quantitative_readout = 0.0443

[[record]]
macromolecule_sequence = "RRIRKRPPRLPRPRPRPNITPRP"
quantitative_readout = -0.0249

[[record]]
macromolecule_sequence = "RRIRGRPPRLPRPRPRPPAKPRP"
quantitative_readout = 1.48

[[record]]
macromolecule_sequence = "RRIRRRPPRLPRPRPRPPLQPRP"
quantitative_readout = 0.682

[[record]]
macromolecule_sequence = "RRIRPRPPRLPRPRPRPSYPPRP"
quantitative_readout = -0.181

[[record]]
macromolecule_sequence = "RRIRMRPPRLPRPRPRPMPLPRP"
quantitative_readout = 0.00106

[[record]]
macromolecule_sequence = "RRIRFRPPRLPRPRPRPSYVPRP"
quantitative_readout = -0.501

[[record]]
macromolecule_sequence = "RRIRSRPPRLPRPRPRPRNRPRP"
quantitative_readout = -0.198

[[record]]
macromolecule_sequence = "RRIRMRPPRLPRPRPRPHCYPRP"
quantitative_readout = -0.0522

[[record]]
macromolecule_sequence = "RRIRFRPPRLPRPRPRPVFTPRP"
quantitative_readout = -0.0271

[[record]]
macromolecule_sequence = "RRIRHRPPRLPRPRPRPICDPRP"
quantitative_readout = -0.174

[[record]]
macromolecule_sequence = "RRIRQRPPRLPRPRPRPYINPRP"
quantitative_readout = -0.299

[[record]]
macromolecule_sequence = "RRIRERPPRLPRPRPRPVHTPRP"
quantitative_readout = -0.00346

[[record]]
macromolecule_sequence = "RRIRCRPPRLPRPRPRPWLRPRP"
quantitative_readout = -0.0383

[[record]]
macromolecule_sequence = "RRIRMRPPRLPRPRPRPFGQPRP"
quantitative_readout = 0.0853

[[record]]
macromolecule_sequence = "RRIRSRPPRLPRPRPRPLNKPRP"
quantitative_readout = -0.343

[[record]]
macromolecule_sequence = "RRIRMRPPRLPRPRPRPTVEPRP"
quantitative_readout = 3.68

[[record]]
macromolecule_sequence = "RRIRRRPPRLPRPRPRPWFIPRP"
quantitative_readout = 0.0648

[[record]]
macromolecule_sequence = "RRIRCRPPRLPRPRPRPHSKPRP"
quantitative_readout = -0.438

[[record]]
macromolecule_sequence = "RRIRFRPPRLPRPRPRPWGTPRP"
quantitative_readout = -0.131

[[record]]
macromolecule_sequence = "RRIRHRPPRLPRPRPRPGGKPRP"
quantitative_readout = -0.0185

[[record]]
macromolecule_sequence = "RRIRCRPPRLPRPRPRPCEPPRP"
quantitative_readout = -0.221

[[record]]
macromolecule_sequence = "RRIRGRPPRLPRPRPRPTMGPRP"
quantitative_readout = 0.875

[[record]]
macromolecule_sequence = "RRIRQRPPRLPRPRPRPHAHPRP"
quantitative_readout = 0.000761

[[record]]
macromolecule_sequence = "RRIRWRPPRLPRPRPRPGSWPRP"
quantitative_readout = 0.517

[[record]]
macromolecule_sequence = "RRIRRRPPRLPRPRPRPYIMPRP"
quantitative_readout = -0.733

[[record]]
macromolecule_sequence = "RRIRVRPPRLPRPRPRPDCNPRP"
quantitative_readout = -0.497

[[record]]
macromolecule_sequence = "RRIRSRPPRLPRPRPRPHVIPRP"
quantitative_readout = -0.6

[[record]]
macromolecule_sequence = "RRIRWRPPRLPRPRPRPWYGPRP"
quantitative_readout = -0.34

[[record]]
macromolecule_sequence = "RRIRIRPPRLPRPRPRPSYLPRP"
quantitative_readout = -0.831

[[record]]
macromolecule_sequence = "RRIRMRPPRLPRPRPRPYRMPRP"
quantitative_readout = -0.219

[[record]]
macromolecule_sequence = "RRIRERPPRLPRPRPRPPETPRP"
quantitative_readout = -0.0785

[[record]]
macromolecule_sequence = "RRIRGRPPRLPRPRPRPQHWPRP"
quantitative_readout = 0.165

[[record]]
macromolecule_sequence = "RRIRPRPPRLPRPRPRPQSWPRP"
quantitative_readout = -0.134

[[record]]
macromolecule_sequence = "RRIRVRPPRLPRPRPRPMAWPRP"
quantitative_readout = -0.114

[[record]]
macromolecule_sequence = "RRIRARPPRLPRPRPRPTYTPRP"
quantitative_readout = -0.0355

[[record]]
macromolecule_sequence = "RRIRYRPPRLPRPRPRPRAKPRP"
quantitative_readout = 0.404

[[record]]
macromolecule_sequence = "RRIRRRPPRLPRPRPRPSMCPRP"
quantitative_readout = 0.008

[[record]]
macromolecule_sequence = "RRIRYRPPRLPRPRPRPNNTPRP"
quantitative_readout = -1.32

[[record]]
macromolecule_sequence = "RRIRWRPPRLPRPRPRPTAWPRP"
quantitative_readout = 2

[[record]]
macromolecule_sequence = "RRIRPRPPRLPRPRPRPHPFPRP"
quantitative_readout = -0.115

